target: human HSD17B13 (Homo sapiens); test: Substrate screening of steroid and bioactive lipid libraries against purified recombinant HSD17B13 (NADH-linked luciferase assay); type: biochemical; conditions: Steroid Library, 50 μM steroid, normalized to 50 μM estradiol after subtraction of 5% DMSO
Task for the reader: assign each of the following molecules its reported HSD17B13 Enzymatic Activity Percent Estradiol Control.
Give bare numbers, in %.

Past entries and their recorded results:
• CC1(C)[C@@H](O)CC[C@]2(C)[C@H]3C(=O)C=C4[C@@H]5C[C@@](C)(C(=O)O)CC[C@]5(C)CC[C@@]4(C)[C@]3(C)CC[C@@H]12 = −2.23
• C[C@]12CCC(=O)C[C@@H]1CC[C@@H]1[C@@H]2CC[C@]2(C)C(=O)CC[C@@H]12 = 0.37
• C[C@]12CC[C@H]3[C@@H]([C@H]4C[C@H]4[C@]4(O)C[C@@H](O)CC[C@]34C)[C@@H]1[C@@H]1C[C@@H]1C2=O = 0.39
• CC1(C)[C@@H](O[C@H]2O[C@H](C(=O)O)[C@@H](O)[C@H](O)[C@H]2O[C@@H]2O[C@H](C(=O)O)[C@@H](O)[C@H](O)[C@H]2O)CC[C@]2(C)[C@H]3C(=O)C=C4[C@@H]5C[C@@](C)(C(=O)O)CC[C@]5(C)CC[C@@]4(C)[C@]3(C)CC[C@@H]12 = 0.05
• C[C@H](O)[C@@]1(O)CC[C@H]2[C@@H]3CC[C@@H]4C[C@H](O)CC[C@]4(C)[C@H]3CC[C@@]21C = 0.06

Batch: HSD17B13 Enzymatic Activity Percent Estradiol Control for all items listed.
1. CC(=O)[C@H]1CC[C@H]2[C@@H]3CCC4=CC(=O)CC[C@]4(C)[C@H]3CC[C@]12C
2. C[C@]12CC[C@@H](O)C[C@@H]1CC[C@@H]1[C@@H]2[C@@H](O)C[C@@]2(C)[C@H]1CC[C@]2(O)C(=O)CO [5alpha-Tetrahydrocortisol]
3. CC(=O)S[C@@H]1CC2=CC(=O)CC[C@]2(C)[C@H]2CC[C@@]3(C)[C@@H](CC[C@@]34CCC(=O)O4)[C@H]12
4. C[C@]12CC[C@H](O)C[C@@H]1CC[C@@H]1[C@@H]2CC[C@]2(C)C(=O)CC[C@@H]12 [Epiandrosterone]
5. CC[C@H]1[C@@H](O)[C@@H]2[C@H](CC[C@]3(C)[C@@H]([C@H](C)CCC(=O)O)CC[C@@H]23)[C@@]2(C)CC[C@@H](O)C[C@@H]12
6. C[C@]12Cc3c[nH]nc3C[C@@H]1CC[C@@H]1[C@@H]2CC[C@@]2(C)[C@H]1CC[C@]2(C)O
7. C[C@]12C/C(=C/O)C(=O)C[C@@H]1CC[C@@H]1[C@@H]2CC[C@@]2(C)[C@H]1CC[C@]2(C)O

[0.26, 1.20, 0.41, 0.44, "−1.47", "−0.35", "−1.20"]

* * *

Task for the reader: assign each of the following compounds its reported HSD17B13 Enzymatic Activity Percent Estradiol Control.
target: human HSD17B13 (Homo sapiens, UniProt Q7Z5P4); assay: Substrate screening of steroid and bioactive lipid libraries against purified recombinant HSD17B13 (NADH-linked luciferase assay); type: biochemical; conditions: Bioactive Lipid Library, 5 μM bioactive lipid, normalized to 50 μM estradiol after subtraction of 5% DMSO
Sequence (Q7Z5P4 20-300): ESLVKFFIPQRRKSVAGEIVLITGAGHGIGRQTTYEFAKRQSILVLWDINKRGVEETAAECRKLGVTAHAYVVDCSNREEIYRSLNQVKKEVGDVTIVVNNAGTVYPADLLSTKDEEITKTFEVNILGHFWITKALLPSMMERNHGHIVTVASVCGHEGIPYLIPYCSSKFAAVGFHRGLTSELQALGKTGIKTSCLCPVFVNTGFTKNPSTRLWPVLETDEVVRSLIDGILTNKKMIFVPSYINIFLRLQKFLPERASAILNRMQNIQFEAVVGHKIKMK
Answers are plain numbers, in %.

Batch: HSD17B13 Enzymatic Activity Percent Estradiol Control for all items listed.
1. CCCCCC1OC1C/C=C\C/C=C\C/C=C\CCCC(=O)O (racemic) [(±)14(15)-EET]
2. CC/C=C\C[C@H](O)/C=C/C=C\C/C=C\C/C=C\CCCC(=O)O [15(S)-HEPE]
3. CCC(O)/C=C/C=C\C/C=C\C/C=C\C/C=C\C/C=C\CCC(=O)O (racemic) [(±)20-HDHA]
4. CCCCC/C=C\C[C@@H](O)/C=C/C=C/C=C\[C@@H](O)CCCC(=O)NCCO [Leukotriene B4 Ethanolamide]

[1.41, 16.24, 82.82, 131.68]

* * *

target: human HSD17B13 (Homo sapiens, UniProt Q7Z5P4); assay: Substrate screening of steroid and bioactive lipid libraries against purified recombinant HSD17B13 (NADH-linked luciferase assay); assay type: biochemical; conditions: Steroid Library, 50 μM steroid, normalized to 50 μM estradiol after subtraction of 5% DMSO
OUTCOME MEASURE: HSD17B13 Enzymatic Activity Percent Estradiol Control (%)
Give bare numbers, in %.

Past entries and their recorded results:
* C[C@]12C[C@H]3S[C@H]3C[C@@H]1CC[C@@H]1[C@@H]2CC[C@@]2(C)[C@H]1CC[C@@]2(C)O | −1.06
* CCC(=O)O[C@H]1CC[C@H]2[C@@H]3CC[C@H]4CC(=O)[C@H](C)C[C@]4(C)[C@H]3CC[C@]12C [Dromostanolone proprionate] | 0.90

Batch: HSD17B13 Enzymatic Activity Percent Estradiol Control for all items listed.
1. C[C@]12CCC(=O)C[C@@H]1CC[C@@H]1[C@@H]2C(=O)C[C@]2(C)C(=O)CC[C@@H]12
2. C[C@]12CCC(=O)C=C1CC[C@@H]1[C@@H]2[C@@H](O)C[C@]2(C=O)[C@@H](C(=O)CO)CC[C@@H]12
3. C[C@]12CCC(=O)C(O)=C1CC[C@@H]1[C@@H]2CC[C@]2(C)C(=O)CC[C@@H]12
4. C[C@]12CC[C@@H](O)C[C@@H]1CC[C@@H]1[C@@H]2C(=O)C[C@]2(C)C(=O)CC[C@@H]12
5. C[C@]12CC[C@H]3[C@@H](CC[C@@]45O[C@@H]4C(O)=C(C#N)C[C@]35C)[C@@H]1CC[C@@H]2O
6. CCCCCCCC/C=C\CCCCCCCC(=O)O

1: 1.18; 2: 0.99; 3: 0.63; 4: 0.63; 5: 30.32; 6: −2.50

Batch: HSD17B13 Enzymatic Activity Percent Estradiol Control for all items listed.
1. C[C@]12CCC(O)C[C@@H]1CC[C@@H]1[C@@H]2CC[C@]2(C)[C@@H](O)CC[C@@H]12 (stereo partly shown)
2. C[C@]12CCC(=O)C[C@@H]1CC[C@@H]1[C@@H]2CC[C@]2(C)[C@@H](O)CC[C@@H]12 [DHT, dihydroxy testosterone (DHT)]

5.73
30.14

Batch: HSD17B13 Enzymatic Activity Percent Estradiol Control for all items listed.
1. CC(=O)OCC(=O)[C@H]1CC[C@H]2[C@@H]3CCC4=CC(=O)CC[C@]4(C)[C@H]3[C@@H](O)C[C@]12C [Corticosterone 21-acetate]
2. C[C@]12CC[C@H]3C(=CCc4cc(O)ccc43)[C@@H]1CCC2=O
3. C[C@]12CCC(=O)C[C@@H]1CC[C@@H]1[C@@H]2[C@@H](O)C[C@@]2(C)[C@H]1CC[C@]2(O)C(=O)CO [5alpha-dihydrocortisol]
4. C[C@]12CC[C@H](O)C[C@H]1CC[C@@H]1[C@@H]2CC[C@]2(C)[C@@](O)(c3ccoc3)CC[C@]12O
5. C[C@]12CC[C@@H]3c4ccc(O)cc4CC[C@H]3[C@@H]1CC[C@@H]2O
6. O=c1cc(-c2ccc(O)cc2)oc2cc(O)cc(O)c12
7. C[C@]12C=CC(=O)C=C1CC[C@@H]1[C@@H]2C(=O)C[C@@]2(C)[C@H]1CC[C@]2(O)C(=O)CO
8. C[C@]12CC[C@@H](O)C[C@@H]1CC[C@@H]1[C@@H]2[C@@H](O)C[C@]2(C)C(=O)CC[C@@H]12 [11beta-Hydroxyandrosterone]

1: 0.52; 2: 0.46; 3: −0.36; 4: 0.47; 5: 85.76; 6: −2.38; 7: 0.63; 8: 1.12

* * *

target: human HSD17B13 (Homo sapiens); experiment: Substrate screening of steroid and bioactive lipid libraries against purified recombinant HSD17B13 (NADH-linked luciferase assay); assay type: biochemical; conditions: Bioactive Lipid Library, 5 μM bioactive lipid, normalized to 50 μM estradiol after subtraction of 5% DMSO
Structures can show the parent of a compound that is named as a salt.
OUTCOME MEASURE: HSD17B13 Enzymatic Activity Percent Estradiol Control (%)
Give bare numbers, in %.

* CC/C=C\C/C=C\C/C=C\C/C=C\CC1OC1CCCC(=O)OC (stereo not shown) | 0.93
* CCCCC/C=C\C/C=C\CC(O)C(O)C/C=C\CCCC(=O)O (racemic) [(±)8(9)-DiHET] | 11.11

Batch: HSD17B13 Enzymatic Activity Percent Estradiol Control for all items listed.
1. C[C@@H](O)CCC[C@H](O)CC[C@H]1[C@H](O)CC(=O)[C@@H]1CCCCCCC(=O)O
2. CC1(C)[C@@H]2C[C@H](NS(=O)(=O)c3ccc(I)cc3)[C@@H](C/C=C\CCCC(=O)O)[C@H]1C2
3. CCCCC/C=C\C[C@H](O)/C=C/C=C\CCC(=O)O [tetranor-12(S)-HETE]
4. O=P(O)(O)OC1[C@@H](OP(=O)(O)O)[C@H](OP(=O)(O)O)C(O)[C@H](OP(=O)(O)O)[C@H]1OP(=O)(O)O (stereo partly shown) [(sodium salt)]
5. CC/C=C\C[C@H](O)/C=C/[C@H]1OC(=O)C[C@H](O)[C@@H]1C/C=C\CCCC(=O)O [11-dehydro Thromboxane B3]

[4.26, "−2.97", 4.10, 5.52, 3.11]
